// data source = ChEMBL document CHEMBL1121972

system: Canis familiaris; assay: Antispasmodic activity was measured on stomach contraction in anesthetized dog after iv administration of a dose of 0.1 mg/kg; type: functional, Canis lupus familiaris
The following compounds are shown together with reported Activity values.

{"columns": ["compound", "Activity"],
 "data": [
  ["CCN(CCCCOC(=O)c1ccc(OC)c(OC)c1)C1CCc2c(cccc2OC)C1.Cl (stereo not drawn)", "<5"],
  ["CCOc1cc(C(=O)OCCCCN(CC)C2CCc3cc(OC)ccc3C2)cc(OCC)c1OCC.Cl (stereo not drawn)", "<5"],
  ["CCN(CCOC(=O)c1ccc(OC)c(OC)c1)C1CCc2cc(OC)ccc2C1.Cl (stereo not drawn)", "<5"],
  ["CCN(CCCCO)C1CCc2cc(OC)ccc2C1 (stereo not drawn)", "<5"],
  ["COc1ccc2c(c1)CCC(N(CCCCOC(=O)c1ccc(OC)c(OC)c1)C(C)C)C2.Cl (stereo not drawn)", "<5"],
  ["CCN(CC(C)(C)COC(=O)c1ccc(OC)c(OC)c1)C1CCc2cc(OC)ccc2C1.Cl (stereo not drawn)", "<5"],
  ["CCN(CCCCOC(=O)c1ccc2c(c1)OCO2)C1CCc2cc(OC)ccc2C1.Cl (stereo not drawn)", "<5"],
  ["COc1ccc2c(c1)CCC(N(C)CCCCOC(=O)c1ccc(OC)c(OC)c1)C2.Cl (stereo not drawn)", "<5"],
  ["CCN(CCCCOC(=O)c1ccc(OC)c(OC)c1)C1CCc2cc(OC)c(OC)cc2C1.Cl (stereo not drawn)", 11.8],
  ["CCN(CCCCOC(=O)c1c(OC)cccc1OC)C1CCc2cc(OC)ccc2C1.Cl (stereo not drawn)", "<5"],
  ["CCN(CCCCCCOC(=O)c1ccc(OC)c(OC)c1)C1CCc2ccccc2C1.Cl (stereo not drawn)", 31.3],
  ["CCN(CCCCOC(=O)c1ccc(OC)cc1)C1CCc2cc(OC)ccc2C1.Cl (stereo not drawn)", "<5"],
  ["CCOc1ccc(C(=O)OCCCCN(CC)C2CCc3cc(OC)ccc3C2)cc1.Cl (stereo not drawn)", "<5"]
]}

----------
The following compounds are shown together with reported Activity values.
tested on: Canis familiaris; experiment: Antispasmodic activity was measured on stomach contraction in anesthetized dog after iv administration of a dose of 0.1 mg/kg; format: functional, Canis lupus familiaris
measurement_label: Activity

{"columns": ["compound", "assayed_system", "rel", "measured"],
 "data": [
  ["CCN(CCCCCCOC(=O)c1ccc(OC)c(OC)c1)C1CCc2cc(OC)c(OC)cc2C1.Cl (centres undefined)", "Canis familiaris", "=", 64.5],
  ["CCN(CCCCOCc1ccc(OC)c(OC)c1)C1CCc2cc(OC)ccc2C1 (centres undefined)", "Canis familiaris", "<", 5],
  ["CCN(CCCCOC(=O)c1ccc(OC)c(OC)c1)C1CCc2cccc(OC)c2C1.Cl (centres undefined)", "Canis familiaris", "=", 21.3],
  ["CCN(CCCCOC(=O)c1ccc(OC)c(OC)c1)C1CCc2cc(OC)ccc2C1.Cl (centres undefined)", "Canis familiaris", "=", 6.6],
  ["CCN(CCCCOC(=O)c1cc(OC)c(OC)c(OC)c1)C1CCc2cc(OC)ccc2C1.CS(=O)(=O)O (centres undefined)", "Canis familiaris", "<", 5],
  ["CCN(CCCCOC(=O)c1ccc(OC)c(OC)c1)C1CCc2cc3c(cc2C1)OCO3.Cl (centres undefined)", "Canis familiaris", "<", 5],
  ["CCN(CCCCCCOC(=O)c1ccc(OC)c(OC)c1)C1CCc2cc(OC)ccc2C1.Cl (centres undefined)", "Canis familiaris", "<", 5],
  ["CCN(CCCCOC(=O)c1ccc(OC)c(OC)c1)C1CCc2ccc(OC)cc2C1.Cl (centres undefined)", "Canis familiaris", "=", 18.1],
  ["CCOc1ccc2c(c1)CCC(N(CC)CCCCOC(=O)c1ccc(OC)c(OC)c1)C2.Cl (centres undefined)", "Canis familiaris", "<", 5]
]}
